Fu overview
experiment: Fraction unbound in human plasma by rapid equilibrium dialysis binding assay; type: ADME, cell-free
Please state the value as a number alone, without comment.

>>> numericvalue("Cc1ccc2c(c1)C(=O)N(c1ccc(NC(=O)c3occc3C)c(F)c1)C2=O")
0.002
>>> numericvalue("Cc1ccoc1C(=O)Nc1ccc(N2C(=O)c3ccc(F)cc3C2=O)cc1F")
0.03
>>> numericvalue("Cc1ccoc1C(=O)Nc1ccc(N2C(=O)c3cccc(F)c3C2=O)cc1F")
0.027

## Input Can you look up the measured Fu of `Cc1ccoc1C(=O)Nc1ccc(N2C(=O)c3cccc(C)c3C2=O)cc1F` for me?
## Output 0.009

###

biological target: Cytochrome P450 2D6 (Homo sapiens, UniProt P10635)
Sequence (P10635 whole entry): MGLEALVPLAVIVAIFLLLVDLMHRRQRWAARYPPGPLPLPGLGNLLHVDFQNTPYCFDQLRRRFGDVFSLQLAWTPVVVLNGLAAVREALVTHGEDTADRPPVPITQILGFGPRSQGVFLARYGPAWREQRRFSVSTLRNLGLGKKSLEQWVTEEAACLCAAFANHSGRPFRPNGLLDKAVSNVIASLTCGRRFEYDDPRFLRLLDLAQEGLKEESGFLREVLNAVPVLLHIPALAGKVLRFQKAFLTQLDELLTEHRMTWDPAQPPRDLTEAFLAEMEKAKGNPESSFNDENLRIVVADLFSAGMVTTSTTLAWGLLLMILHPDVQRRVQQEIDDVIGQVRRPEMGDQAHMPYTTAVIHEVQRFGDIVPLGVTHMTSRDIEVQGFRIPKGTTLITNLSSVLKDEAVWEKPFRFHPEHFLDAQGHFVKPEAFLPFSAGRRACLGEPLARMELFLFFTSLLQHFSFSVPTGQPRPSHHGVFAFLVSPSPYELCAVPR
measuredEndpoint: IC50

## Input Can you look up the measured IC50 of `Cc1ccoc1C(=O)Nc1ccc(N2C(=O)c3cccc(C)c3C2=O)cc1F` for me?
## Output > 30 µM

###

target: Metabotropic glutamate receptor 4 (Homo sapiens, UniProt Q14833); assay: Positive allosteric modulation of human mGlu4 receptor by cell based calcium mobilization
Sequence (Q14833 whole entry): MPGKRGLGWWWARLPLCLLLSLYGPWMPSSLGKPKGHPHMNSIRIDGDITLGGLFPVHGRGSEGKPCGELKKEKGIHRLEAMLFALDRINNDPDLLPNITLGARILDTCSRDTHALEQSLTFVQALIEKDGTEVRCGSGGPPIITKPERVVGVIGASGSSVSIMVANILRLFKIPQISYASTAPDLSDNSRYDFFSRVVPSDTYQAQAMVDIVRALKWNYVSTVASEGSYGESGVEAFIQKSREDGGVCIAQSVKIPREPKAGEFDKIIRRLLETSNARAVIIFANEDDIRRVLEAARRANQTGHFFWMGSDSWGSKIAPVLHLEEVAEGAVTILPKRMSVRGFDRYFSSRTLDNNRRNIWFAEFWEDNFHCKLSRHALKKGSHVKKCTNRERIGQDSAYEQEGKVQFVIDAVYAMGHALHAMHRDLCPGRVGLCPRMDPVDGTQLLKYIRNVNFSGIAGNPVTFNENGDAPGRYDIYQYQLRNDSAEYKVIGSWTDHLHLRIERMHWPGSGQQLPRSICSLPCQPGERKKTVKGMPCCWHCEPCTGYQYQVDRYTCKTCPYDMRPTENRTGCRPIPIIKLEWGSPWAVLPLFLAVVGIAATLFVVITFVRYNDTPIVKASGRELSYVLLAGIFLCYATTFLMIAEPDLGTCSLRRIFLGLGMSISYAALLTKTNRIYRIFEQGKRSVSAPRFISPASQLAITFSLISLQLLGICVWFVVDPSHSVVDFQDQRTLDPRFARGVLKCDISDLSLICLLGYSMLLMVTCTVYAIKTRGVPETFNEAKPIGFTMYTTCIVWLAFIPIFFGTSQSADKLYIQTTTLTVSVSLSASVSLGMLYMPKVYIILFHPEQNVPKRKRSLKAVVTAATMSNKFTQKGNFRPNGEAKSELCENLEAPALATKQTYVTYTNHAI
Response field label takes 1.0 when EC50 is strictly below 1000 nM and 0.0 in all other cases.

Worked cases, answers included:
>>> qualitativelabel("Cc1scnc1C(=O)Nc1ccc(N2C(=O)c3cccc(Cl)c3C2=O)c(Cl)c1")
0.0
>>> qualitativelabel("Cc1ccc2c(c1)C(=O)N(c1ccc(NC(=O)c3nccn3C)cc1Cl)C2=O")
1.0
>>> qualitativelabel("Cc1cccc2c1C(=O)N(c1ccc(NC(=O)c3ncsc3C)cc1Cl)C2=O")
0.0

## Input Problem: For the molecule `Cc1scnc1C(=O)Nc1ccc(N2C(=O)c3cccnc3C2=O)c(Cl)c1` , is EC50 under 1000 nM?
## Output 0.0

## Input Problem: For the molecule `Cc1cn[nH]c1C(=O)Nc1ccc(N2C(=O)c3cccc(F)c3C2=O)c(Cl)c1` , is EC50 under 1000 nM?
## Output 0.0

## Input Problem: For the molecule `Cc1ocnc1C(=O)Nc1ccc(N2C(=O)c3ccc(Cl)cc3C2=O)c(Cl)c1` , is EC50 under 1000 nM?
## Output 1.0

## Input Problem: For the molecule `Cc1ccc2c(c1)C(=O)N(c1ccc(NC(=O)c3[nH]ncc3C)cc1Cl)C2=O` , is EC50 under 1000 nM?
## Output 0.0

## Input Problem: For the molecule `Cc1scnc1C(=O)Nc1ccc(N2C(=O)c3ccc(Cl)cc3C2=O)c(Cl)c1` , is EC50 under 1000 nM?
## Output 0.0

## Input Problem: For the molecule `Cn1ccnc1C(=O)Nc1ccc(N2C(=O)c3cccc(F)c3C2=O)c(Cl)c1` , is EC50 under 1000 nM?
## Output 0.0

## Input Problem: For the molecule `Cc1ocnc1C(=O)Nc1ccc(N2C(=O)c3ccc(F)cc3C2=O)c(Cl)c1` , is EC50 under 1000 nM?
## Output 1.0

###

target: Metabotropic glutamate receptor 4 (Homo sapiens); test: Positive allosteric modulation of human mGlu4 receptor by cell based calcium mobilization
measuredEndpoint: pEC50
Hey, just a heads up that pEC50 is the negative log base 10 of the concentration in molar.

Past entries and their recorded results:
>>> numericvalue("Cc1cccc2c1C(=O)N(c1ccc(NC(=O)c3ncoc3C)cc1Cl)C2=O")
6.28
>>> numericvalue("Cc1cccc2c1C(=O)N(c1ccc(NC(=O)c3nccn3C)cc1Cl)C2=O")
6.30

Moving on to the next compound.
## Input Can you look up the measured pEC50 of `Cc1cn[nH]c1C(=O)Nc1ccc(N2C(=O)c3ccc(F)cc3C2=O)c(Cl)c1` for me?
## Output 5.21
